Assay: Cytotoxicity against human PBMC cells assessed as reduction in cell viability by MTT assay
Type: cell-based
parameter_measured: CC50

• C#CCNC(=O)C(=O)c1c(C)c(C(=O)Nc2ccc(F)c(F)c2)n(C)c1C = > 100 µM
• Cc1c(C(=O)C(=O)NCc2nccn2C)c(C)n(C)c1C(=O)Nc1ccc(F)c(F)c1 = > 100 µM
• Nc1ccn([C@@H]2CS[C@H](CO)O2)c(=O)n1 = > 100 µM
• Cn1cc(C(=O)C(=O)N2CC(F)(F)C2)cc1C(=O)Nc1ccc(F)c(F)c1 = > 100 µM

Could you now look at the following compound, please?
Challenge: Write down CC50 measured for item Cc1c(C(=O)C(=O)Nc2nccs2)c(C)n(C)c1C(=O)Nc1ccc(F)c(F)c1
Response given: > 100 µM

----------
Assay: Cytotoxicity against human HepG2 cells assessed as reduction in cell viability by MTT assay
Assay type: cell-based
parameter_measured: CC50 (µM)
Response body: numeric value in µM, unit text excluded.

• Cc1c(C(=O)C(=O)NCc2nccn2C)c(C)n(C)c1C(=O)Nc1ccc(F)c(F)c1 = 34.7

Now look at this entry.
Challenge: Return reported CC50. Input compound: CCN(CC)C(=O)C(=O)c1c(C)c(C(=O)Nc2ccc(F)c(F)c2)n(C)c1C
Response given: 89.9

----------
Test system: Hepatitis B virus
Assay: Antiviral activity against Hepatitis B virus infected in human HePAD38 cells assessed as reduction in viral DNA replication incubated for 7 days by RT-PCR analysis
Type: functional, organism-based
Conditions: HePAD38, 168 h, time 7 day
Please assign No whenever EC90 is at or above 3 µM, and Yes whenever it is below.

Worked examples follow.
* Cn1cc(C(=O)C(=O)Nc2ccccc2)cc1C(=O)Nc1ccc(F)c(F)c1 | Yes
* Cc1c(C(=O)C(=O)NCc2nccn2C)c(C)n(C)c1C(=O)Nc1ccc(F)c(F)c1 | Yes
* C#CCNC(=O)C(=O)c1c(C)c(C(=O)Nc2ccc(F)c(F)c2)n(C)c1C | Yes

Challenge: In the record for Cc1c(C(=O)C(=O)Nc2nc3ccccc3[nH]2)c(C)n(C)c1C(=O)Nc1ccc(F)c(F)c1 , is EC90 less than 3 µM?
Response given: No

Challenge: Determine if C=C1[C@H](CO)[C@@H](O)C[C@@H]1n1cnc2c(=O)[nH]c(N)nc21 shows EC90 strictly lower than 3 µM.
Response given: Yes

Challenge: Check if EC90 falls below 3 µM for O=C(Nc1ccc(F)c(F)c1)c1cc(S(=O)(=O)N2CC(F)(F)C2)ccc1F .
Response given: No

Challenge: # strict comparison: is reported EC90 < 3 µM? input = Cn1cc(C(=O)C(=O)N2CCOCC2)cc1C(=O)Nc1ccc(F)c(F)c1
Response given: No

Challenge: Please determine if Nc1ccn([C@@H]2CS[C@H](CO)O2)c(=O)n1 is below 3 µM in terms of EC90.
Response given: Yes

Challenge: Here's an entry: Cn1cc(C(=O)C(=O)NCc2ccccc2)cc1C(=O)Nc1ccc(F)c(F)c1 . Is its EC90 below 3 µM?
Response given: No

Challenge: EC90 strictly < 3 µM for this compound? Cn1cc(C(=O)C(=O)N2CC(F)(F)C2)cc1C(=O)Nc1ccc(F)c(F)c1
Response given: No

Challenge: Given the entry Cn1cc(C(=O)C(=O)Nc2nccs2)cc1C(=O)Nc1ccc(F)c(F)c1 , would its reported EC90 be below 3 µM?
Response given: No

Challenge: Just wondering, is EC90 of CCOC(=O)C1=C(CN2CCOCC2)NC(c2nccs2)=NC1c1ccc(F)cc1Br (stereo unspecified) below 3 µM?
Response given: Yes

Challenge: Criterion: EC90 strictly below 3 µM. Is it met by C#CCNC(=O)C(=O)c1cc(C(=O)Nc2ccc(F)c(F)c2)n(C)c1 ?
Response given: No

Challenge: A record lists Cc1c(C(=O)C(=O)Nc2nccs2)c(C)n(C)c1C(=O)Nc1ccc(F)c(F)c1 . Is its EC90 below 3 µM?
Response given: Yes

Challenge: Lab note: confirm whether the reported EC90 for this compound is below 3 µM, equality not counting. compound: Cc1c(C(=O)C(=O)NCc2ccccn2)c(C)n(C)c1C(=O)Nc1ccc(F)c(F)c1
Response given: Yes

Challenge: Regarding Cc1c(C(=O)C(=O)Nc2ccccn2)c(C)n(C)c1C(=O)Nc1ccc(F)c(F)c1 , kindly confirm whether its EC90 is beneath 3 µM.
Response given: Yes

Challenge: Determine if Cc1c(C(=O)C(=O)N2CCN(C)CC2)c(C)n(C)c1C(=O)Nc1ccc(F)c(F)c1 shows EC90 strictly lower than 3 µM.
Response given: Yes

Challenge: For Cn1cc(C(=O)C(=O)NCC#N)cc1C(=O)Nc1ccc(F)c(F)c1 , is the recorded EC90 below the cut-off of 3 µM?
Response given: No

Challenge: # strict comparison: is reported EC90 < 3 µM? input = CCN(CC)C(=O)C(=O)c1c(C)c(C(=O)Nc2ccc(F)c(F)c2)n(C)c1C
Response given: No
